system-tested: T1, IL10Rα/IL2Rγ receptor (human, UniProt Q13651 22-578; P31785 23-369)
T1 sequence (looked up) 1: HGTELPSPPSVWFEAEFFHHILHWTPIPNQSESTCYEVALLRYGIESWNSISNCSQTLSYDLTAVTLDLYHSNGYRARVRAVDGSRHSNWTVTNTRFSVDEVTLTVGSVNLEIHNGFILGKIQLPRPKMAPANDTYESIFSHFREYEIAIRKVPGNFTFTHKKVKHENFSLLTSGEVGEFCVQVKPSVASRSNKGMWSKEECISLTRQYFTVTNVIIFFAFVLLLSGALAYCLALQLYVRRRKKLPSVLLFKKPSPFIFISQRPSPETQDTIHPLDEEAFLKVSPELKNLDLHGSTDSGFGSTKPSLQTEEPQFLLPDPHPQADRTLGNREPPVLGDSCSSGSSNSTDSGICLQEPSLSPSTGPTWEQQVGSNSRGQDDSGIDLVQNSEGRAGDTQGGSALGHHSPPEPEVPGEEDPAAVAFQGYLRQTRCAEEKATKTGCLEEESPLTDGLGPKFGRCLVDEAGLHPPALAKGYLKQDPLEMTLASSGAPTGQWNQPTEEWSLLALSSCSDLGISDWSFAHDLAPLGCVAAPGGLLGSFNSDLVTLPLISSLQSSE
T1 sequence (looked up) 2: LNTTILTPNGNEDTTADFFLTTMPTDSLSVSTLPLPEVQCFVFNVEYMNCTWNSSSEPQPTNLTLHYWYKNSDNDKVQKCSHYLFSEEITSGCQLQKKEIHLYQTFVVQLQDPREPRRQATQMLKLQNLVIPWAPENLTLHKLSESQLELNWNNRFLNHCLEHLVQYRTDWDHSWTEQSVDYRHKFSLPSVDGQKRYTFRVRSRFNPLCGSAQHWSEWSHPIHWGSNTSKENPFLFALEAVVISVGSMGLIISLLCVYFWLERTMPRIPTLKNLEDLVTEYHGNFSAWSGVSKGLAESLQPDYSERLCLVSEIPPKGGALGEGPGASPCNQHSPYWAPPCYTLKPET
assay-summary: cell-based or functional assay
property: pSTAT3 MFI, Monocytes, 1 nM (unstimulated 2116) (MFI)
Report the figure in MFI without appending any unit label.

Previously resolved entries follow.
DR465(DR240-DR231) (bispecific antibody) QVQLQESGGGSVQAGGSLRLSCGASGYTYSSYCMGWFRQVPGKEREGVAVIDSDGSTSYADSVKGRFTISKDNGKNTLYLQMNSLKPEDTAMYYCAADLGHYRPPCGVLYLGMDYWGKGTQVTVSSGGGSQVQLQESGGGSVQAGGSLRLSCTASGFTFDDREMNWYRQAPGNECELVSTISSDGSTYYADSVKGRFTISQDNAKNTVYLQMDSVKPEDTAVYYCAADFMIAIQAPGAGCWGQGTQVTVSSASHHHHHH	2110
DR471(DR241-DR231) (bispecific antibody) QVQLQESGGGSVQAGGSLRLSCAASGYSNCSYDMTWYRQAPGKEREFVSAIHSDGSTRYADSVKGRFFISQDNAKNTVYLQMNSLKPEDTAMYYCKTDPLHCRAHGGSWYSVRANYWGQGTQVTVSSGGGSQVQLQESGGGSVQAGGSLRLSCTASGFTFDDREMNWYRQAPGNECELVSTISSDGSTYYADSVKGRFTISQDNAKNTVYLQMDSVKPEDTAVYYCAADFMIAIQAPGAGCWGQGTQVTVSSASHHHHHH	2030

In: # query: pSTAT3 MFI, Monocytes, 1 nM (unstimulated 2116) of entry DR395(DR229-DR239) (bispecific antibody) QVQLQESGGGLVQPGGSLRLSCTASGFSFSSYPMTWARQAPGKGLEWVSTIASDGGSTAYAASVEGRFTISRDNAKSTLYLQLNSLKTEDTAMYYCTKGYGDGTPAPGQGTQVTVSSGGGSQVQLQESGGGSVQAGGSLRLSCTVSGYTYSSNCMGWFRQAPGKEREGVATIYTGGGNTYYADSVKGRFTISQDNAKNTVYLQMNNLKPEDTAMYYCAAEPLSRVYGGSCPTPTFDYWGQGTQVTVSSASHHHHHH
Out: 2210
